molecular target: human factor D (Homo sapiens (Human), UniProt P00746); experiment: biochemical; type: biochemical; conditions: Factor D inhibition data using Method 1; recombinant human factor D 10 nM, substrate Z-Lys-thiobenzyl, fluorescence; read-out: IC50
Sequence (P00746 26-253): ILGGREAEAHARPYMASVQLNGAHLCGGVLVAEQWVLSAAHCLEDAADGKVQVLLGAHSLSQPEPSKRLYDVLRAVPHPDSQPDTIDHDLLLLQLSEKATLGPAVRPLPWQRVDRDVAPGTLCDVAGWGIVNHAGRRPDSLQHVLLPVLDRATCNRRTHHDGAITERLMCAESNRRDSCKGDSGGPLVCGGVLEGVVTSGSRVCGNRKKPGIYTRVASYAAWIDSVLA
pIC50: −log10 of the molar value.
measurement.type: pIC50

[[record]]
compound = "CC(=O)c1nn(CC(=O)N2[C@@H]3C[C@@H]3C[C@H]2C(=O)NCC2CCCC(C)C2)c2cnccc12 (single isomer, unassigned; dia 2) [Example 120]"
measured_result = 7.15

[[record]]
compound = "CC1(C)[C@H](CNC(=O)[C@@H]2C[C@H]3C[C@H]3N2C(=O)Cn2nc(C(N)=O)c3ccncc32)C1(Cl)Cl"
measured_result = 6.93

[[record]]
compound = "CC1CCCC(CNC(=O)[C@@H]2C[C@H]3C[C@H]3N2C(=O)Cn2nc(C(N)=O)c3ccncc32)C1 (single isomer, unassigned; dia 4) [Example 118]"
measured_result = 6.80

[[record]]
compound = "CC(=O)c1nn(CC(=O)N2[C@@H]3C[C@@H]3C[C@H]2C(=O)NC[C@H]2CC2(Cl)Cl)c2ccc(CCc3ncccn3)cc12"
measured_result = 7.15

[[record]]
compound = "NC(=O)c1nn(CC(=O)N2[C@@H]3C[C@@H]3C[C@H]2C(=O)NC[C@H]2CC2(Cl)Cl)c2ccncc12"
measured_result = 6.32

[[record]]
compound = "CC(=O)c1nn(CC(=O)N2[C@@H]3C[C@@H]3C[C@H]2C(=O)NCC2CCC(C)(C)CC2)c2cnccc12"
measured_result = 6.02

[[record]]
compound = "C[C@@H](NC(=O)[C@@H]1C[C@H]2C[C@H]2N1C(=O)Nc1cn(C(N)=O)c2ccccc12)C1CCCCC1"
measured_result = 7.11

[[record]]
compound = "CC(=O)c1nn(CC(=O)N2[C@@H]3C[C@@H]3C[C@H]2C(=O)NCC2CCCC2(C)C)c2cnccc12 (single isomer, unassigned; dia 2) [Example 20]"
measured_result = 6.63

